Test: method code SF-AS, from PMID: 17296250
Conditions: pH 7.2
Observed Property: logD
Reply with the value as a number alone.

Challenge: Tell me the measured logD of CC(C=CC1=C(C)CCC1(C)C)=CC=CC(C)=CC=NNC(N)=S , please.
Response given: 1.05

---

Experiment: method code SF-AS, from DOI: 10.1016/0014-5793(79)80862-5, PMID: 478007
Observed Property: logP
Reply with the value as a number alone.

Challenge: Tell me the measured logP of C#CC(C)N(C)C(=O)Nc1ccc(Cl)cc1 (stereo unspecified) , please.
Response given: 3

---

Test: method code SF-AS, from DOI: 10.1016/0005-2744(69)90103-x, PMID: 4387594
Observed Property: logP
Reply with the value as a number alone.

Challenge: Tell me the measured logP of CCCNc1ccccc1 , please.
Response given: 2.45

---

Assay: method code SF-AS, from DOI: 10.1021/acs.inorgchem.5b01238, PMID: 26280387
Observed Property: logP

entry_smiles=CCSC(=S)C=C(O)c1ccccc1 reported_result=1.93

Challenge: Tell me the measured logP of CCSC(=S)C=C(O)c1ccc(O)cc1 , please.
Response given: 1.97

---

// logP lookup, one value per entry
Assay: method code SF-HPLC, from Blakemore, C.; Brown, H.; Durant, J.; Emmett, C.; Ganellin, R.; Parsons, E.; Rasmussen, C. (1980). SK&F 92994: a new histamine H2-receptor antagonist. COMMUNICATIONS: Part II. Br. J. Pharmacol., …
Reply with the value as a number alone.

entry_smiles=CN(Cc1ccc(Br)cc1)N=O reported_result=1.57

Would you kindly look at the next entry?
Challenge: Tell me the measured logP of CN(Cc1cccc(Br)c1)N=O , please.
Response given: 1.65

---

Observed Property: logP
Reply with the value as a number alone.

Challenge: Tell me the measured logP of COCCN1C=CC(=C2C(=O)c3ccc(Cl)cc3C2=O)C=C1 , please.
Response given: 2.78

---

// logP lookup, one value per entry

compound="FC(F)(F)C1(F)C(F)(F)C(F)(F)C(F)(N2C(F)(F)C(F)(F)C(F)(F)C(F)(F)C2(F)F)C(F)(F)C1(F)F (configuration not stated)" reported_result=7

Would you kindly look at the next entry?
Challenge: Tell me the measured logP of FC1(F)C(F)(F)C(F)(F)C2(F)C(F)(F)C(F)(F)C(F)(F)C(F)(F)C2(F)C1(F)F (configuration not stated) , please.
Response given: 6

---

Observed Property: logP

Challenge: Tell me the measured logP of Cc1ccc(CCNc2cc(-c3n[nH]c(N)n3)ccn2)cc1C , please.
Response given: 3.08

---

Test: method code SF-RC, from Godoy, N.; Valle, L.; Mena, P.; Gil, M. (1989). Synthesis, labeling and biodistribution of 99mTc-labelled bromoimino diacetic acids. Nucleotecnica, 9(17)25-32.
// logP lookup, one value per entry

Solved cases (2 shown):
entry_smiles=Cc1cc(C)c(NC(=O)CN(CC(=O)O)CC(=O)O)c(C)c1Br observed_property=logP reported_result=-0.11
entry_smiles=CCCCc1ccc(NC(=O)CN(CC(=O)O)CC(=O)O)cc1Br observed_property=logP reported_result=-0.1

Would you kindly look at the next entry?
Challenge: Tell me the measured logP of Cc1ccc(Br)c(C)c1NC(=O)CN(CC(=O)O)CC(=O)O , please.
Response given: 0.28
